- tgt: T1, human IL-17A (human, UniProt Q16552 24-155)
- T1 construct: secreted form made in Hek293 cells (GenBank U32659); also called hIL-17A; hIL17A
- protocol text: AlphaScreen hIL-17A-IL-17RA; vs IL17MS13E02
quantity name: IC50 fold difference vs WT (fold)
Enter your answer as a number in fold; do not include the unit.

binder	IC50 fold difference vs WT / fold
IL17MS3032 (VHH, variant of IL17MS13E02; Kabat numbering) VHH: EVQLVESGGGLVQPGGSLRLSCAASGRTYDAMGWLRQAPGKEREFVAAISGSGDDTYYADSVKGRFTISRDNSKNTMYLQMNSLRPEDTAVYYCATRRGLYYVWDSNDYENWGQGTLVTVSS	1.42
IL17MS3034 (VHH, variant of IL17MS13E02; Kabat numbering) VHH: EVQLVESGGGLVQAGGSLRLSCAASGRTYDALGWLRQAPGKEREFVAAISGSGDDTYYADSVKGRFTISKDNAGITMYLQMNSLKPEDTAVYYCATRRGLYYVWDSNDYENWGQGTQVTVSS	1.68
IL17MS3037 (VHH, variant of IL17MS13E02; Kabat numbering) VHH: EVQLVESGGGLVQAGGSLRLSCAASGRTYDAMGWLRQAPGKEREFVAAISGSGDDTYYADSVKGRFTISKDNAGITMYLQMNSLKPEDTAVYYCATRRGLYYVWDANDYENWGQGTQVTVSS	1.61

Kindly review the next binder as well.
Req: Consider the binder shown here: IL17MS3022 (VHH, variant of IL17MS13E02; Kabat numbering) VHH: EVQLVESGGGLVQPGGSLRLSCAASGRTYDAMGWLRQAPGKEREFVAAISGSGDDTYYADSVKGRFTISKDNSGNTMYLQMNSLRPEDTAVYYCATRRGLYYVWDSNDYENWGQGTLVTVSS What is its recorded IC50 fold difference vs WT?
Resp: 1.17
